# test-target: NR1/NR2A (Homo sapiens (Human), UniProt Q05586+Q12879)
# Sequence (Q12879 23-1464, other chains not shown): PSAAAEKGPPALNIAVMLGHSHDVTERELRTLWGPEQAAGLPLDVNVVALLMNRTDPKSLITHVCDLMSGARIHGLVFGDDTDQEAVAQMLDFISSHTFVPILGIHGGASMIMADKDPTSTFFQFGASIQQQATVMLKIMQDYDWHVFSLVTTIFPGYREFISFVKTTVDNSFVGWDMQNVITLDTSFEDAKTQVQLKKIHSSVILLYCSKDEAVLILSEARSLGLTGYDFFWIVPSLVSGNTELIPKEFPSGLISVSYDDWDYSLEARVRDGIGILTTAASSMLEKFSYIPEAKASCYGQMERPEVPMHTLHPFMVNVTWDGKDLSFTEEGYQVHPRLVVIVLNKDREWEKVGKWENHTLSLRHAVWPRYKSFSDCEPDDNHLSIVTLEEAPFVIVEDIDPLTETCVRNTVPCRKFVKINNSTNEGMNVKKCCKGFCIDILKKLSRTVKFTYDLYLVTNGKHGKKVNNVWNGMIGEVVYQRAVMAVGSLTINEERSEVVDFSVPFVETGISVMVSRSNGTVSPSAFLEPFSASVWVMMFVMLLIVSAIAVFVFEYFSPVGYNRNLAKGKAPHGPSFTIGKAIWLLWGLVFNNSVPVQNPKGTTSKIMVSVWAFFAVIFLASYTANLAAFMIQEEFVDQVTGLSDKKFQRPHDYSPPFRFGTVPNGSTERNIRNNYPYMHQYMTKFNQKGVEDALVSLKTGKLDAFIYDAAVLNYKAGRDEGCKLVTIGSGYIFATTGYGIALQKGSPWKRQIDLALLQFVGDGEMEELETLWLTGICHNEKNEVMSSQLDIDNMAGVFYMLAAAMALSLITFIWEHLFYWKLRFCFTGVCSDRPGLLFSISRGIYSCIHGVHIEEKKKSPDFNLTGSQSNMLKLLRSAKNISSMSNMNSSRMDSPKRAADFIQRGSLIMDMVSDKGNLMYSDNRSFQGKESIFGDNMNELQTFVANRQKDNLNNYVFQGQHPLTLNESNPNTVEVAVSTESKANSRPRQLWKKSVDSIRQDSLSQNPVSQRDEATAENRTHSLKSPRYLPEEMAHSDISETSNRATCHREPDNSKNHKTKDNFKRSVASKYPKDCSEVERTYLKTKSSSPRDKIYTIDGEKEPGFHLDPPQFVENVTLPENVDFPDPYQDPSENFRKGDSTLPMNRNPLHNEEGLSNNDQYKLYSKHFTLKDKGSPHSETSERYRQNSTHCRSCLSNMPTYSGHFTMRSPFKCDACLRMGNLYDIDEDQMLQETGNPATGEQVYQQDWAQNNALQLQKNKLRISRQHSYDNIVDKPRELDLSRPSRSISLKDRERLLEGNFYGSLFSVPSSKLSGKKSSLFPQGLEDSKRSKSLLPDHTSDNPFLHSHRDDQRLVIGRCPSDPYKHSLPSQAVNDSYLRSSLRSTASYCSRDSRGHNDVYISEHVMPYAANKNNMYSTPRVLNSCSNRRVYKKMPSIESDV
# assay-explanation: FDSS Ca2+ influx inhibition assay in HEK293 cells expressing NR1/NR2A
# Assay type: cell-based
# details: 3 μM glutamate, 3 μM glycine, 1 mM Ca2+, read-out: Binned Activity
# Procedure: Cell Culture and plating: HEK293 cells expressing NR1/NR2A (Chantest, Cleveland, Ohio) were grown to 70-80% confluency as an adherent monolayer in standard tissue culture flasks at 37° C., 5% CO2 per supplier's instructions. After induction, cell culture medium was removed and cells were rinsed once with Ca^2+ and Mg^2+-free Dulbecco's phosphate buffered saline. […] Following two washes in Ca^2+/Mg^2+-free HBSS with 20 mM HEPES (HHnoCa), cells were counted and viability assessed using trypan blue. […]
pIC50: −log10 of the molar value.
Consider the following molecules and their measured pIC50 readings.

Worked set:
>  <molecule>
O=C(NC1CCS(=O)(=O)C1)c1ccc(CNS(=O)(=O)c2ccc(F)c(Cl)c2)nc1 (centres unmarked)

>  <test-target>
NR1/NR2A (Homo sapiens (Human), UniProt Q05586+Q12879)

>  <pIC50>
< 5.00

$$$$
>  <molecule>
Cc1ncc(CNC(=O)c2cnc(CNS(=O)(=O)c3ccc(Cl)c(Cl)c3)c(C)n2)s1

>  <test-target>
NR1/NR2A (Homo sapiens (Human), UniProt Q05586+Q12879)

>  <pIC50>
6.00 to 7.00

$$$$
>  <molecule>
Cc1nnc(CNC(=O)c2ccc(CNS(=O)(=O)c3ccc(F)c(Cl)c3)cn2)s1

>  <test-target>
NR1/NR2A (Homo sapiens (Human), UniProt Q05586+Q12879)

>  <pIC50>
5.00 to 6.00

$$$$
>  <molecule>
CN(C)CCNC(=O)c1ccc(CNS(=O)(=O)c2ccc(F)c(Cl)c2)cn1

>  <test-target>
NR1/NR2A (Homo sapiens (Human), UniProt Q05586+Q12879)

>  <pIC50>
< 5.00

$$$$
>  <molecule>
Cc1ncc(CNC(=O)c2cnc(CNS(=O)(=O)c3cc(Cl)ccc3F)c(C)n2)s1

>  <test-target>
NR1/NR2A (Homo sapiens (Human), UniProt Q05586+Q12879)

>  <pIC50>
5.00 to 6.00

$$$$

# evaluate next
So for Cn1cncc1CNC(=O)c1ccc(CNS(=O)(=O)c2ccc(F)c(Cl)c2)cn1 , the logged pIC50 turned out to be 5.00 to 6.00
